Entry source: paper PMC9648375

// reported IC50 per item
# Test system: LS180 (colon cancer cell line)
# Measurement notes: MTT assay
# Assay type: cell-based
# Experimental context: Homo sapiens, 48 h, read-out: IC50, cytotoxicity
All answers are understood in µg/mL, so give the number only.

Lab note: measured IC50 of `O=C(Cc1cccc2ccccc12)NNC(=S)NC(=O)c1ccccc1Cl` was 41.1

Lab note: measured IC50 of `O=C(NC(=S)NNC(=O)c1ccccc1[N+](=O)[O-])c1ccc([N+](=O)[O-])cc1` was 10.4

Now for another entry.
Lab note: measured IC50 of `O=C(Cc1cccc2ccccc12)NNC(=S)NC(=O)c1ccccc1` was 19.8

###

// reported IC50 per item
# Test system: MCF-7 (estrogen-dependent human breast cancer cells)
# Measurement notes: BrdU assay
# Assay type: cell-based
# Experimental context: MCF7, MCF-7, BrdU, 24 h, read-out: IC50 ± SD, antiproliferative activity
All answers are understood in mg/L, so give the number only.

A selection of reference data follows.
Lab note: measured IC50 of COc1cc([C@@H]2c3cc4c(cc3[C@@H](O[C@@H]3O[C@@H]5CO[C@@H](C)O[C@H]5[C@H](O)[C@H]3O)[C@H]3COC(=O)[C@H]23)OCO4)cc(OC)c1O [Etoposide, etoposide, reference compound] was 54.9

Lab note: measured IC50 of CC(C)c1cccc(C(C)C)c1NC(=S)NNC(=O)Cc1cccc2ccccc12 [Compound 1] was 1.19

---
Lab note: measured IC50 of O=C(Cc1cccc2ccccc12)NNC(=S)Nc1ccc(N=Nc2ccccc2)cc1 [Compound 2] was 33.2

Lab note: measured IC50 of O=C(NNC(=S)Nc1ccc(N=Nc2ccccc2)cc1)c1ccccc1[N+](=O)[O-] [Compound 3] was 32.5

###

# System: SCC-25 (squamous cell carcinoma of the tongue)
# Measurement notes: MTT assay
# Assay type: cell-based
# Experimental context: Homo sapiens; SCC-25, MTT, 24h; read-out: IC50, cytotoxicity
// reported IC50 per item
All answers are understood in µg/mL, so give the number only.

Lab note: measured IC50 of O=C(Cc1cccc2ccccc12)NNC(=S)NC(=O)c1ccccc1 [Compound 9] was 32.2

Lab note: measured IC50 of CC(C)c1cccc(C(C)C)c1NC(=S)NNC(=O)Cc1cccc2ccccc12 [Compound 1] was 7.06

Lab note: measured IC50 of O=C(NNC(=S)Nc1ccc(N=Nc2ccccc2)cc1)c1ccccc1[N+](=O)[O-] [Compound 3] was 4.76

Lab note: measured IC50 of COc1cc([C@@H]2c3cc4c(cc3[C@@H](O[C@@H]3O[C@@H]5CO[C@@H](C)O[C@H]5[C@H](O)[C@H]3O)[C@H]3COC(=O)[C@H]23)OCO4)cc(OC)c1O [Etoposide, etoposide, reference compound] was 59.1

---
Lab note: measured IC50 of O=C(NC(=S)NNC(=O)c1ccccc1[N+](=O)[O-])c1ccc([N+](=O)[O-])cc1 [Compound 6] was 26

Lab note: measured IC50 of O=C(NNC(=S)NC(=O)c1ccccc1Cl)c1ccc(O)c([N+](=O)[O-])c1 [Compound 7] was 42.4

###

# Measurement notes: MTT assay
# Type: cell-based
# Experimental context: human, HEK-293 cells (normal reference cell line), HEK-293 (normal cells), 48h, read-out: IC50, cytotoxicity
Label 1 when IC50 at 48 h is strictly below 20 µg/mL; at or above that, label 0.

Below, 6 compounds whose answers are already recorded.
Prompt line: Is the reported IC50 at 48 h for O=C(NNC(=S)NC(=O)c1ccccc1Cl)c1ccc(O)c([N+](=O)[O-])c1 [Compound 7] strictly below 20 µg/mL?
Response line: 0

Prompt line: Is the reported IC50 at 48 h for O=C(NNC(=S)Nc1ccc(N=Nc2ccccc2)cc1)c1ccccc1[N+](=O)[O-] [Compound 3] strictly below 20 µg/mL?
Response line: 1

Prompt line: Is the reported IC50 at 48 h for O=C(Cc1cccc2ccccc12)NNC(=S)Nc1ccc(N=Nc2ccccc2)cc1 [Compound 2] strictly below 20 µg/mL?
Response line: 1

Prompt line: Is the reported IC50 at 48 h for O=C(Cc1cccc2ccccc12)NNC(=S)NC(=O)c1ccccc1 [Compound 9] strictly below 20 µg/mL?
Response line: 0

Prompt line: Is the reported IC50 at 48 h for Cc1cccc(C(=O)NC(=S)NNC(=O)c2ccccc2[N+](=O)[O-])c1 [Compound 5] strictly below 20 µg/mL?
Response line: 0

Prompt line: Is the reported IC50 at 48 h for CC(C)c1cccc(C(C)C)c1NC(=S)NNC(=O)Cc1cccc2ccccc12 [Compound 1] strictly below 20 µg/mL?
Response line: 1

Pending compound:
Prompt line: Is the reported IC50 at 48 h for O=C(Cc1cccc2ccccc12)NNC(=S)NC(=O)c1ccccc1Cl [Compound 8] strictly below 20 µg/mL?
Response line: 0

###

// reported melting point per item

A selection of reference data follows.
Lab note: measured melting point of O=C(NNC(=S)Nc1ccc(F)cc1F)c1ccccc1[N+](=O)[O-] [Compound 11] was 182 to 184 °C

Lab note: measured melting point of Cc1cccc(C(=O)NC(=S)NNC(=O)c2ccccc2[N+](=O)[O-])c1 [Compound 5] was 194 to 195 °C

Lab note: measured melting point of O=C(Cc1cccc2ccccc12)NNC(=S)NC(=O)c1ccccc1 [Compound 9] was 164 to 166 °C

Lab note: measured melting point of O=C(NNC(=S)Nc1ccc(N=Nc2ccccc2)cc1)c1ccccc1[N+](=O)[O-] [Compound 3] was 168 to 170 °C

Now for another entry.
Lab note: measured melting point of O=C(NNC(=S)Nc1c(F)cccc1F)c1ccccc1[N+](=O)[O-] [Compound 4] was 278 to 280 °C

###

# Measurement notes: MTT assay
# Assay type: cell-based
# Experimental context: human, HEK-293 cells (normal reference cell line), HEK-293 (normal cells), 24h, read-out: IC50, cytotoxicity
# Description: Therefore, the whole set of compounds were tested by using MTT assay in order to check their overall cytotoxic effect. The growth of cells was monitored after 24 and 48 h of incubation with the increased concentrations (1–100 µg/ml) of the thiosemicarbazide derivatives. […] The synthesised compounds were dissolved in DMSO in order to obtain stock solutions. […] The results of the MTT assay were expressed as mean ± SD. […]
// reported IC50 at 24 h per item

A selection of reference data follows.
Lab note: measured IC50 at 24 h of Cc1cccc(C(=O)NC(=S)NNC(=O)c2ccccc2[N+](=O)[O-])c1 [Compound 5] was 78.1 µg/mL

Lab note: measured IC50 at 24 h of O=C(NNC(=S)Nc1ccc(N=Nc2ccccc2)cc1)c1ccccc1[N+](=O)[O-] [Compound 3] was 27.5 µg/mL

Lab note: measured IC50 at 24 h of O=C(Cc1cccc2ccccc12)NNC(=S)Nc1ccc(N=Nc2ccccc2)cc1 [Compound 2] was 15.6 µg/mL

Lab note: measured IC50 at 24 h of O=C(NNC(=S)Nc1c(F)cccc1F)c1ccccc1[N+](=O)[O-] [Compound 4] was > 100 µg/mL

Lab note: measured IC50 at 24 h of COc1cc([C@@H]2c3cc4c(cc3[C@@H](O[C@@H]3O[C@@H]5CO[C@@H](C)O[C@H]5[C@H](O)[C@H]3O)[C@H]3COC(=O)[C@H]23)OCO4)cc(OC)c1O [Etoposide, etoposide, reference compound] was 37.9 µg/mL

Lab note: measured IC50 at 24 h of O=C(NNC(=S)NC(=O)c1ccccc1Cl)c1ccc(O)c([N+](=O)[O-])c1 [Compound 7] was 67.2 µg/mL

---
Lab note: measured IC50 at 24 h of O=C(Cc1cccc2ccccc12)NNC(=S)NC(=O)c1ccccc1 [Compound 9] was 67 µg/mL

Lab note: measured IC50 at 24 h of O=C(Cc1cccc2ccccc12)NNC(=S)Nc1c(F)cccc1F [Compound 10] was 63.7 µg/mL

###

# System: A549 (human lung carcinoma)
# Measurement notes: BrdU assay
# Assay type: cell-based
# Experimental context: Homo sapiens; A549, BrdU, 24 h; read-out: IC50 ± SD, antiproliferative activity
// reported IC50 per item
All answers are understood in µg/mL, so give the number only.

A selection of reference data follows.
Lab note: measured IC50 of `O=C(Cc1cccc2ccccc12)NNC(=S)Nc1ccc(N=Nc2ccccc2)cc1` was 0.83

Lab note: measured IC50 of `CC(C)c1cccc(C(C)C)c1NC(=S)NNC(=O)Cc1cccc2ccccc12` was 0.23

---
Lab note: measured IC50 of COc1cc([C@@H]2c3cc4c(cc3[C@@H](O[C@@H]3O[C@@H]5CO[C@@H](C)O[C@H]5[C@H](O)[C@H]3O)[C@H]3COC(=O)[C@H]23)OCO4)cc(OC)c1O [Etoposide, etoposide, reference compound] was 2.6

Lab note: measured IC50 of `O=C(NNC(=S)Nc1ccc(N=Nc2ccccc2)cc1)c1ccccc1[N+](=O)[O-]` was 0.25
